study.target: ULK1 kinase (Homo sapiens, UniProt O75385, E37A/K38A)
Sequence (O75385 1-283 E37A/K38A): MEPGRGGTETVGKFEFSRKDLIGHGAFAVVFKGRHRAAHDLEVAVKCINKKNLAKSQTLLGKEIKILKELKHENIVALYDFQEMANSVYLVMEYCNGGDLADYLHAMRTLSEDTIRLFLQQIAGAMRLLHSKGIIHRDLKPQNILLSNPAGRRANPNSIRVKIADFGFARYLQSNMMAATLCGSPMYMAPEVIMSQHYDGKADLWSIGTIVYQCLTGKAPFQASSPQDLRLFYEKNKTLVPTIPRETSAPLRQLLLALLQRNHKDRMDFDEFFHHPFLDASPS
assay.details: Biochemical assay for ULK1.3 (coupled pyruvate kinase/lactate dehydrogenase assay, peptide substrate)
cond: 0.1 nM ULK1 (residues 1-283), 1 mM ATP
Consider the following molecules; for each one, report its IC50.

Here is how some molecules turned out for IC50.
| entry.smiles | IC50 |
| --- | --- |
| CN(C)CC1CN(c2ccc(Nc3ncc(C(F)(F)F)c(NCCCN4CCCCC4=O)n3)c(C3CC3)c2)C1 | 1 to 25 nM |
| Cc1cc(N2CCN(C)CC2)ncc1Nc1ncc(C(F)(F)F)c(NCCCN2CCCCC2=O)n1 | 25 to 100 nM |
| CN1CCN(c2ccc(Nc3cc(NCCCN4CCCCC4=O)c(C(F)(F)F)cn3)nc2)CC1 | 100 to 500 nM |

Okay, next one:
Provide measured IC50 value, entry: CCc1cc(N2CCN(C)C(=O)C2)ccc1Nc1ncc(C(F)(F)F)c(NCCCN2CCCOC2=O)n1
25 to 100 nM

---

ULK2 kinase (Homo sapiens): recorded IC50 for assorted compounds

Here is how some compounds turned out for IC50.
| entry.smiles | value.reported |
| --- | --- |
| Cc1cc(N2CCN(C)CC2)ncc1Nc1ncc(C(F)(F)F)c(NCCCN2CCCCC2=O)n1 | 100 to 500 nM |
| Cc1cc(N2CCN(C3CC3)CC2)ccc1Nc1ncc(C(F)(F)F)c(NCCCN2CCCCC2=O)n1 | 100 to 500 nM |
| CCc1cc(N2CCNCC2)ccc1Nc1ncc(C(F)(F)F)c(NCCCN2CCCOC2=O)n1 | 25 to 100 nM |

For each entry beneath this line, provide reported IC50.
1. CCc1cc(N2CCN(C)CC2)ccc1Nc1ncc(Cl)c(NCCCN2CCCOCC2=O)n1
2. CCN1CCN(c2ccc(Nc3ncc(C(F)(F)F)c(NCCCN4CCCCC4=O)n3)c(C)c2)CC1
3. CCc1cc(N2CCN(CC)CC2)ccc1Nc1ncc(C(F)(F)F)c(NCCCN2CCCCC2=O)n1
4. CCc1cc(N2CCOCC2)ccc1Nc1ncc(Cl)c(NCCCN2CCCOCC2=O)n1
5. CCc1cc(N2CCN(C)CC2)ccc1Nc1ncc(C(F)(F)F)c(NCCCN2CCCOC2=O)n1

> 500 nM
25 to 100 nM
1 to 25 nM
> 500 nM
25 to 100 nM

---

study.target: ULK1 kinase (Homo sapiens, UniProt O75385, E37A/K38A)
assay.details: Biochemical assay for ULK1.3 (coupled pyruvate kinase/lactate dehydrogenase assay, peptide substrate)
cond: 0.1 nM ULK1 (residues 1-283), 1 mM ATP
assay.endpoint: IC50

Here is how some molecules turned out for IC50.
| molecule | study.target | IC50 |
| --- | --- | --- |
| CCN1CCN(c2ccc(Nc3ncc(C(F)(F)F)c(NCCCN4CCCCC4=O)n3)c(C(C)C)c2)CC1 [Example 28] | ULK1 kinase (Homo sapiens, UniProt O75385, E37A/K38A) | 1 to 25 nM |
| CN(C)C1CN(c2ccc(Nc3ncc(Br)c(NCCCN4CCCCC4=O)n3)c(C3CC3)c2)C1 [Example 118] | ULK1 kinase (Homo sapiens, UniProt O75385, E37A/K38A) | 25 to 100 nM |
| CCc1cc(N2CC[C@H](N(C)C)C2)ccc1Nc1ncc(C(F)(F)F)c(NCCCN2CCOCCC2=O)n1 [Example 145] | ULK1 kinase (Homo sapiens, UniProt O75385, E37A/K38A) | 1 to 25 nM |

Return reported IC50 for target or system ULK1 kinase (Homo sapiens, UniProt O75385, E37A/K38A), item CCc1cc(N2C[C@@H]3C[C@H]2CN3C)ccc1Nc1ncc(C(F)(F)F)c(NCCCN2CCCOC2=O)n1 [Example 120] .
1 to 25 nM

---

study.target: LRRK2 kinase (Homo sapiens, UniProt Q5S007)
Sequence (Q5S007 with tags, fused parts or gaps): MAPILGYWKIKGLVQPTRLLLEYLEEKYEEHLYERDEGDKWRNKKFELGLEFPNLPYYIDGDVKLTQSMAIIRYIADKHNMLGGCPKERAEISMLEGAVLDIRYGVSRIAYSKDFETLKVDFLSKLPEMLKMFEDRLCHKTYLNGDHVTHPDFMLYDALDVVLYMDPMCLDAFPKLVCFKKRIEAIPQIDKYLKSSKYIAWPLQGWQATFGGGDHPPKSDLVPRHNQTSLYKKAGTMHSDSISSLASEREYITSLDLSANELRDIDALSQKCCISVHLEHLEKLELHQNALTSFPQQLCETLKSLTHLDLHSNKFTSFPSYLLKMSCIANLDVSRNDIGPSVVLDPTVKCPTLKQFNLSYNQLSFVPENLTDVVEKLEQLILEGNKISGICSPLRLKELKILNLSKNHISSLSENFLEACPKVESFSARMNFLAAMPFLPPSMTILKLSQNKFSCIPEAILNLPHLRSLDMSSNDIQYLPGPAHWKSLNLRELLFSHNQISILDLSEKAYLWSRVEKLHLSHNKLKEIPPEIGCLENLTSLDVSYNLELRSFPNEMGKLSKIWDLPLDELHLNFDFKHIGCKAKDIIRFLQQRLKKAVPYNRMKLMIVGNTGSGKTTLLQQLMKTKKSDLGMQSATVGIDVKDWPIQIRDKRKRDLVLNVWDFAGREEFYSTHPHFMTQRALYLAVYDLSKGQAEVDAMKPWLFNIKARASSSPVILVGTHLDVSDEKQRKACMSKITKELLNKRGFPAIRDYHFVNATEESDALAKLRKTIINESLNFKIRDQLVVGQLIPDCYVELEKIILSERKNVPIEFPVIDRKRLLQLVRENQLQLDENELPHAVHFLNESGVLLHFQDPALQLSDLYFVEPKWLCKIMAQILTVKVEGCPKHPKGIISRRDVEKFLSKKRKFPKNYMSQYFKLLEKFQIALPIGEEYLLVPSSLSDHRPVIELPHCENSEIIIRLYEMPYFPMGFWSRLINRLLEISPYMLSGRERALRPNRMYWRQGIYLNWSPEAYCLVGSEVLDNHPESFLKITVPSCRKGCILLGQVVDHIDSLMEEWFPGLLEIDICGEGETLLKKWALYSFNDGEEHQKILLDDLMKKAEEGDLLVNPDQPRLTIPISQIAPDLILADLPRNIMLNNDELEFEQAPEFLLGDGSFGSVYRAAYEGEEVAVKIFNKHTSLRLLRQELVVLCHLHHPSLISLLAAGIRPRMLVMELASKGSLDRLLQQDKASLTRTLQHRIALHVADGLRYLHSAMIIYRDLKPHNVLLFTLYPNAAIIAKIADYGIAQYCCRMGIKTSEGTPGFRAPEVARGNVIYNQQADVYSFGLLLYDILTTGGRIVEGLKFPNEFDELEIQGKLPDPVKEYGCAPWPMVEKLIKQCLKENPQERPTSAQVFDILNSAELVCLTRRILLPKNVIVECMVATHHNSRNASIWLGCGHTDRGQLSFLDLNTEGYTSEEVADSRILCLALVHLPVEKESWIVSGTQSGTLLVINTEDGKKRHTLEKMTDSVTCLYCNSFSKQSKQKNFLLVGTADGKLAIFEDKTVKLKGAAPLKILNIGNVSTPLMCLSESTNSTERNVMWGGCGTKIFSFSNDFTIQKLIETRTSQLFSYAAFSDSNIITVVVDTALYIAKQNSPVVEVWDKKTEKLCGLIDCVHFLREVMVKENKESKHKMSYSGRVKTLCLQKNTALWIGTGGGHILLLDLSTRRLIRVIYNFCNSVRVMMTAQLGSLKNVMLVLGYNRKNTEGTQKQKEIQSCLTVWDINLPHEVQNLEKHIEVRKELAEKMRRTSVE
pIC50: −log10 of the molar value.
assay.endpoint: pIC50

| molecule | pIC50 |
| --- | --- |
| CN1CCN(c2ccc(Nc3ncc(C(F)(F)F)c(NCCCN4CCCOC4=O)n3)c(C3CCCC3)c2)CC1 [Example 111] | 6.52 to 7.00 |

For each entry beneath this line, provide reported pIC50.
1. CCc1cc(N2CCN(C)CC2=O)ccc1Nc1ncc(C(F)(F)F)c(NCCCN2CCCOC2=O)n1 [Example 56]
2. CCc1cc(N2CCN3CCC[C@H]3C2)ccc1Nc1ncc(C(F)(F)F)c(NCCCN2CCOCCC2=O)n1 [Example 122]

1: 6.52 to 7.00; 2: 7.00 to 9.00

For each entry beneath this line, provide reported pIC50.
1. COCc1cc(N2CCN(C)CC2)ccc1Nc1ncc(C(F)(F)F)c(NCCCN2CCOCCC2=O)n1 [Example 127]
2. CCc1cc(N2CCN(C)CC2)ccc1Nc1ncc(C#N)c(NCCCN2CCOCCC2=O)n1 [Example 129]
3. CCc1cc(N2CC3CCC(C2)N3C)ccc1Nc1ncc(C(F)(F)F)c(NCCCN2CCCOC2=O)n1 [Example 69]

["6.22 to 6.52", "< 6.22", "6.22 to 6.52"]

For each entry beneath this line, provide reported pIC50.
1. Cc1cc(N2CCN(CCF)CC2)ccc1Nc1ncc(C(F)(F)F)c(NCCCN2CCCCC2=O)n1 [Example 18]
2. CCc1cc(N2CCOCC2)ccc1Nc1ncc(C(F)(F)F)c(NCCCN2CCCOCC2=O)n1 [Example 50]
3. O=C1CCOCCN1CCCNc1nc(Nc2ccc(N3CCN4CCC[C@@H]4C3)cc2C2CC2)ncc1C(F)(F)F [Example 107]
4. CCc1cc(N2C[C@@H]3C[C@H]2CN3C)ccc1Nc1ncc(C(F)(F)F)c(NCCCN2CCCOC2=O)n1 [Example 120]

7.00 to 9.00
7.00 to 9.00
6.52 to 7.00
6.52 to 7.00

---

ULK2 kinase (Homo sapiens, UniProt Q8IYT8): recorded pIC50 for assorted compounds
Sequence (Q8IYT8 with tags, fused parts or gaps): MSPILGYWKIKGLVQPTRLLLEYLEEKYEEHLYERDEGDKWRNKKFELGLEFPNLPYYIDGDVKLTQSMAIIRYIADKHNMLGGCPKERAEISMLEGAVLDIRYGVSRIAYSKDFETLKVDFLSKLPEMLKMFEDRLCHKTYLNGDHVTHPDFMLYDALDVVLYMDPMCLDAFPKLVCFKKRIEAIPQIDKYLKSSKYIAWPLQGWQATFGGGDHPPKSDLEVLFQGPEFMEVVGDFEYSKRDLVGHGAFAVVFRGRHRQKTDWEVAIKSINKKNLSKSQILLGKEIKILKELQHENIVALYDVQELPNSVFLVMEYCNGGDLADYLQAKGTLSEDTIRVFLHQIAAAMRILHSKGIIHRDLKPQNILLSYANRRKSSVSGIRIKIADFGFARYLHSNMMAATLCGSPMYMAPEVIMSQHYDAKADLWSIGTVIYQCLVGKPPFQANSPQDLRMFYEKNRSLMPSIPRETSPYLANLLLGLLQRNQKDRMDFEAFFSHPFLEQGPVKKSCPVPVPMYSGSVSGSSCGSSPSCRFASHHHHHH
pIC50: −log10 of the molar value.

For each entry beneath this line, provide reported pIC50.
1. CN1CCN(c2ccc(Nc3ncc(C(F)(F)F)c(NCCCN4CCCOC4=O)n3)c(C3CC3)c2)CC1
2. CCc1cc(N2CCOCC2)ccc1Nc1ncc(C(F)(F)F)c(NCCCN2CCOCCC2=O)n1
3. Cc1cc(N2CCN(CCF)CC2)ccc1Nc1ncc(C(F)(F)F)c(NCCCN2CCCCC2=O)n1
4. CCc1cc(N2CCN(C)CC2)ccc1Nc1ncc(C(F)(F)F)c(NCCCN2CCOCCC2=O)n1

1. 7.00 to 7.60
2. < 6.30
3. 7.00 to 7.60
4. 7.00 to 7.60

---

study.target: ULK1 kinase (Homo sapiens, UniProt O75385, E37A/K38A)
assay.details: Biochemical assay for ULK1.3 (coupled pyruvate kinase/lactate dehydrogenase assay, peptide substrate)
cond: 0.1 nM ULK1 (residues 1-283), 1 mM ATP
Consider the following compounds; for each one, report its IC50.

Here is how some compounds turned out for IC50.
| entry.smiles | assay.endpoint | value.reported |
| --- | --- | --- |
| CCc1cc(N2C[C@@H]3C[C@H]2CN3C)ccc1Nc1ncc(C(F)(F)F)c(NCCCN2CCOCCC2=O)n1 | IC50 | 1 to 25 nM |
| Cc1cc(N2C[C@H]3C[C@@H]2CO3)ccc1Nc1ncc(C(F)(F)F)c(NCCCN2CCOCCC2=O)n1 | IC50 | 100 to 500 nM |
| CN1CCN(c2ccc(Nc3ncc(Br)c(NCCCN4CCOCCC4=O)n3)c(C3CC3)c2)CC1 | IC50 | 1 to 25 nM |
| CC(C)c1cc(N2CCN(C)CC2)ccc1Nc1ncc(Br)c(NCCCN2CCCCC2=O)n1 | IC50 | 25 to 100 nM |

For each entry beneath this line, provide reported IC50.
1. CC(C)c1cc(N2CCN(C)CC2)ccc1Nc1ncc(Br)c(NCCCN2CCOCCC2=O)n1
2. CN1CCN(c2ccc(Nc3ncc(Br)c(NCCCN4CCCOC4=O)n3)c(C3CC3)c2)CC1

1. 25 to 100 nM
2. 1 to 25 nM

For each entry beneath this line, provide reported IC50.
1. CCc1cc(N2CCN(C)CC2)c(F)cc1Nc1ncc(C(F)(F)F)c(NCCCN2CCOCCC2=O)n1
2. Cc1cc(N2CCNCC2)ccc1Nc1ncc(C(F)(F)F)c(NCCCN2CCOCCC2=O)n1
3. CC(C)c1cc(N2CCN(C)CC2)ccc1Nc1ncc(Cl)c(NCCCN2CCOCCC2=O)n1
4. CCc1cc(N2CCN3CCC[C@@H]3C2)ccc1Nc1ncc(C(F)(F)F)c(NCCCN2CCOCCC2=O)n1
5. CCc1cc(N2CCN(C)CC2)ccc1Nc1ncc(Br)c(NCCCN2CCCOCC2=O)n1

25 to 100 nM
1 to 25 nM
25 to 100 nM
1 to 25 nM
25 to 100 nM

For each entry beneath this line, provide reported IC50.
1. CN1CCN(c2ccc(Nc3ncc(C(F)(F)F)c(NCCCN4CCOCCC4=O)n3)c(Br)c2)CC1
2. Cc1cc(N2CCNCC2)ccc1Nc1ncc(C(F)(F)F)c(NCCCN2CCCOC2=O)n1
3. CN1CCN(c2ccc(Nc3ncc(C(F)(F)F)c(NCCCN4CCCCC4=O)n3)c(C3CC3)c2)CC1=O

1 to 25 nM
1 to 25 nM
100 to 500 nM

For each entry beneath this line, provide reported IC50.
1. CCc1cc(N2CCN3CCC[C@H]3C2)ccc1Nc1ncc(C(F)(F)F)c(NCCCN2CCOCCC2=O)n1
2. CN1CCN(c2ccc(Nc3ncc(C(F)(F)F)c(NCCCN4CCOCCC4=O)n3)c(Cl)c2)CC1

1: 1 to 25 nM; 2: 1 to 25 nM
